# Test system: Escherichia coli strain (ATCC 25922)
# Format: cell-based
Peptide text beside a SMILES is read from it.
VALUE_KIND: MIC in LYM medium, NaCl 50 (µg/mL)
Note: unit µg/mL is implicit; provide only the numeric part.

Request: # input compound: CC(C)C[C@H](NC(=O)[C@H](Cc1c[nH]c2ccccc12)NC(=O)[C@H](CCCCN)NC(=O)[C@H](CC(C)C)NC(=O)[C@H](Cc1c[nH]c2ccccc12)NC(=O)[C@H](CCCCN)NC(=O)[C@H](CCCCN)NC(=O)[C@H](CCCCN)NC(=O)[C@H](CCCCN)NC(=O)[C@H](CCCCN)NC(=O)[C@H](CC(C)C)NC(=O)[C@H](Cc1c[nH]c2ccccc12)NC(=O)[C@@H](N)CCCCN)C(=O)O [SEQ ID NO. 8, KWLKKKKKWLKWL] (H-KWLKKKKKWLKWL-OH; N-terminus and C-terminus assumed) ; wanted: its MIC in LYM medium, NaCl 50
Response: 3.13
